Data origin, for the record: the Human Domainome abundance scans (Beltran et al. 2025)

B1: Intersectin-2, residues 1129 to 1183; numbered along this chain, Q9NZM3 (parent)
chain: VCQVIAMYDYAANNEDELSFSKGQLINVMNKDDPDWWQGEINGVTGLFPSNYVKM

- Variants of: B1
- EXPERIMENTAL_PROTOCOL: abundance fitness (aPCA) (normalised: wild type 0, dead -1); higher = more abundant; growth selection in yeast, the domain comes from the species named
- CONDITION_SUMMARY: Homo sapiens
Using abundance fitness as the sorting value, the categories are class A: < -0.2; class B: ≥ -0.2 and < -0.09; class C: ≥ -0.09

>>> qualitative_label("P34L")
"class C"
>>> qualitative_label("V4I")
"class A"
>>> qualitative_label("P49D")
"class A"
>>> qualitative_label("N30E")
"class C"
>>> qualitative_label("M29Q")
"class B"
>>> qualitative_label("W36R")
"class C"
>>> qualitative_label("E17T")
"class B"
>>> qualitative_label("G23A")
"class B"
>>> qualitative_label("S50W")
"class A"
>>> qualitative_label("V1P")
"class A"
>>> qualitative_label("V28P")
"class A"
>>> qualitative_label("L18I")
"class C"
>>> qualitative_label("G39P")
"class A"
>>> qualitative_label("D35K")
"class C"
>>> qualitative_label("D33W")
"class A"
>>> qualitative_label("Y8R")
"class C"
>>> qualitative_label("K54F")
"class B"
>>> qualitative_label("G23C")
"class A"
>>> qualitative_label("Y8T")
"class B"
>>> qualitative_label("M29T")
"class C"
